Below: a set of entries, each annotated with reported pIC50.
biological target: UniProt:P28221; test: Ability to displace [3H]- -5-HT binding to cloned 5-hydroxytryptamine 1D receptor stably expressed in chinese hamster cells (CHO cells)
pIC50: −log10 of the molar value.

- compound: "CN(Cc1ccccc1)C[C@H]1C[C@H](Cc2c[nH]c3ccc(-n4ccnc4)cc23)N(C)C1"
  system.tested: "UniProt:P28221"
  pIC50: 9.05
- compound: "CN1C[C@@H](CN(C#N)Cc2ccccc2)C[C@@H]1Cc1c[nH]c2ccc(-n3ccnc3)cc12"
  system.tested: "UniProt:P28221"
  pIC50: 8.48
- compound: "CN1[C@@H](Cc2c[nH]c3ccc(-n4cnnc4)cc23)C[C@@H]2CN(CCc3cccc(F)c3)C[C@@H]21 (racemic)"
  system.tested: "UniProt:P28221"
  pIC50: 8.92
- compound: "CN1[C@@H](Cc2c[nH]c3ccc(-n4cnnc4)cc23)C[C@@H]2CN(Cc3ccc(F)cc3)C[C@@H]21 (racemic)"
  system.tested: "UniProt:P28221"
  pIC50: 9.10
- compound: "CN1[C@@H](Cc2c[nH]c3ccc(-n4cnnc4)cc23)C[C@@H]2CN(Cc3ccccc3)C[C@@H]21 (racemic)"
  system.tested: "UniProt:P28221"
  pIC50: 9.05
- compound: "CN1[C@@H](Cc2c[nH]c3ccc(-n4ccnc4)cc23)C[C@@H]2CN(Cc3ccccc3)C[C@@H]21 (racemic)"
  system.tested: "UniProt:P28221"
  pIC50: 9.15

* * *

target: Serotonin 1 receptors; 5-HT1B & 5-HT1D (Homo sapiens) (UniProt P28222+P28221); experiment: Selectivity ratio for h-5-HT 1B receptor to that of h5-HT 1D receptors.; type: protein assay

- compound: "c1ccc(CNC[C@@H]2CCN(CCc3c[nH]c4ccc(-n5cnnc5)cc34)C2)cc1"
  Selectivity: 62
- compound: "CN(Cc1ccccc1)C[C@H]1C[C@H](Cc2c[nH]c3ccc(-n4ccnc4)cc23)N(C)C1"
  Selectivity: 6.9
- compound: "CN1[C@@H](Cc2c[nH]c3ccc(-n4ccnc4)cc23)C[C@@H]2CN(Cc3ccccc3)C[C@@H]21 (racemic)"
  Selectivity: 8.4
- compound: "CN1[C@@H](Cc2c[nH]c3ccc(-n4cnnc4)cc23)C[C@@H]2CN(Cc3ccc(F)cc3)C[C@@H]21 (racemic)"
  Selectivity: 13
- compound: "CN1[C@@H](Cc2c[nH]c3ccc(-n4cnnc4)cc23)C[C@@H]2CN(CCc3cccc(F)c3)C[C@@H]21 (racemic)"
  Selectivity: 15
- compound: "CN1[C@@H](Cc2c[nH]c3ccc(-n4cnnc4)cc23)C[C@@H]2CN(Cc3ccccc3)C[C@@H]21 (racemic)"
  Selectivity: 6.7
- compound: "CN1C[C@@H](CN(C#N)Cc2ccccc2)C[C@@H]1Cc1c[nH]c2ccc(-n3ccnc3)cc12"
  Selectivity: 6.7

* * *

target: 5-hydroxytryptamine receptor 1D (Homo sapiens, UniProt P28221); assay: Maximum stimulation of [35S]GTP-gamma-S, binding expressed relative to the maximal effect produced by the 5-HT; format: functional
Sequence (P28221 whole entry): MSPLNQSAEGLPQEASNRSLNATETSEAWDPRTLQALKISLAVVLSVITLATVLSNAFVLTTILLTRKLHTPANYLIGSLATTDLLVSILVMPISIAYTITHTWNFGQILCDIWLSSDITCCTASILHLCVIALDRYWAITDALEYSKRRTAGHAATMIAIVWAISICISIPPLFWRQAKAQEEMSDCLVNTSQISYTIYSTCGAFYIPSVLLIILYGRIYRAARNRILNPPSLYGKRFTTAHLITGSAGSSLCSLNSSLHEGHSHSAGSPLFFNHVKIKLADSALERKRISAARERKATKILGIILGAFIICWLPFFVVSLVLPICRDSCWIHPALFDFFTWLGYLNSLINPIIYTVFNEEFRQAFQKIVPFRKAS

- molecule: "CN1[C@@H](Cc2c[nH]c3ccc(-n4cnnc4)cc23)C[C@@H]2CN(Cc3ccc(F)cc3)C[C@@H]21 (racemic)"
  Efficacy: 88
- molecule: "CN1[C@@H](Cc2c[nH]c3ccc(-n4cnnc4)cc23)C[C@@H]2CN(Cc3ccccc3)C[C@@H]21 (racemic)"
  Efficacy: 96
- molecule: "CN1[C@@H](Cc2c[nH]c3ccc(-n4ccnc4)cc23)C[C@@H]2CN(Cc3ccccc3)C[C@@H]21 (racemic)"
  Efficacy: 69
- molecule: "CN1[C@@H](Cc2c[nH]c3ccc(-n4cnnc4)cc23)C[C@@H]2CN(CCc3cccc(F)c3)C[C@@H]21 (racemic)"
  Efficacy: 63
- molecule: "c1ccc(CNC[C@@H]2CCN(CCc3c[nH]c4ccc(-n5cnnc5)cc34)C2)cc1"
  Efficacy: 102
